experiment: antimalarial activity against Dd2 strain (AID 2302);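 note: 0% = DMSO untreated growth and 100% = chloroquine plus artemisinin killed control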; conditions: P. falciparum Dd2 in RBCs, LDH growth readout, 72 h; at 2 µM; hits give high values
The following compounds are listed with their measured growth inhibition values.

| compound | growth inhibition (%) |
| --- | --- |
| CC(C)=CCc1c(-c2ccc(O)cc2O)oc2c3c(cc(O)c2c1=O)OC(C)(C)C=C3 | 8 |
| CNC(=O)c1ccccc1Nc1cc(Nc2cc(OC)ccn2)ncc1Cl | 100 |
| CCC(C)c1ccc(O)c(NC(=O)c2cncc(Br)c2)c1 (stereo not given) | 16 |
| Cc1cc(-c2ccc(NC(=O)N3CCc4cc(Br)c(N5CCN(C)CC5)cc43)cc2)ccc1C#N | 56 |
| Cc1c(OC(C)C)nc2ccccc2c1C(=O)N[C@H](c1cccc(F)c1)C1CC1 | 34 |
| COc1cc2c(cc1C(F)(F)F)N(C(=O)Nc1cc(Br)cc(-c3cccnc3)c1)CC2 | 34 |
| O=C(c1cccs1)N1N=C(c2cccs2)CC1c1cccc([N+](=O)[O-])c1 (stereo not given) | 27 |
| O=C(Nc1cccc(CN2CCN(Cc3ccc(O)cc3)CC2)c1)c1cccc(C(F)(F)F)c1 | 15 |
| CCCCC(CC)NC(=O)[C@H]1CNCCN1C(=O)CCCc1ccccc1 (stereo not given in full) | -1 |
| CNC(=O)Cc1ccc(C(=O)Nc2cccc(-c3ccc(-c4nc5c(C)cccc5[nH]4)s3)c2)cc1 | 25 |

----------
molecular target: Plasmodium falciparum protein kinase 6 (PK6, PF3D7_1337100); assay: PfPK6 kinase inhibitors, biochemical, TCAMS library (AID 1159586); conditions: recombinant PfPK6, Kinase-Glo ATP depletion luminescence
Potency and affinity values are given separately. Activity calls are given as the source filed them. How the calls were made is not given here.
assay.metric: outcome

| compound | reported.result |
| --- | --- |
| COc1cc(Cl)c(C)cc1-n1cc(C(=O)c2cc(Br)ccc2O)cc(C#N)c1=O | inactive |
| COc1c(C2CCN(CCCCNC(=O)c3ccc(-c4ccc(C#N)cc4)c(O)c3)CC2)ccc2c1CCCC2 | inactive |
| c1cc(CN2CCN(CCN3CCOCC3)CC2)cc(-c2cccc(-c3nc4ccccc4[nH]3)c2)c1 | inactive |
| Clc1ccc(-c2ncc(-c3ccncc3)[nH]2)cc1Cl | inactive |
| c1ccc(CN2CCN(CCNc3c4ccccc4nc4ccccc34)CC2)cc1 | inactive |
| O=[N+]([O-])c1ccc(-c2ccc(C=NNc3nc(Nc4ccccc4)nc(Nc4ccccc4)n3)o2)cc1 | inactive |
| CCC1(CC)N=C(N)N=C(N)C1c1ccc(Cl)c(Cl)c1 (stereo not drawn) | inactive |
| CC(C)CSc1cc(C(=O)Nc2cc(Cl)ccc2O)ccn1 | inactive |
| COc1ccc(CCNCCCCCCNCCc2cccc([N+](=O)[O-])c2)cc1OC | inactive |
| O=C(CCC1CCCCC1=O)c1ccccc1 (stereo not drawn) | inactive |
| CCc1cc2c(Sc3nnc(N)s3)ncnc2s1 | inactive |
| O=C(Nc1ccc(OC2CCN(Cc3ccc(F)cc3)C2)cc1)c1cccs1 (stereo not drawn) | inactive |
| CCOC(=O)Cc1nc(N)c(C(=O)OCC)[nH]1 | inactive |
| COc1c(Br)cc(Br)cc1C(C)=O | inactive |
| CCc1ccc(NC(=O)c2cccc(CN3CCCN(Cc4cccc(O)c4)CC3)c2)cc1 | inactive |
| CCC(C)C(COC(=O)c1cc(OC)c(OC)c(OC)c1)N(C)CCN(C)C(COC(=O)c1cc(OC)c(OC)c(OC)c1)C(C)CC (stereo not drawn) | inactive |
| CN(C)CCOc1ccc(NC(=O)NC(C)(C)c2nc(-c3ccc(Cl)c(O)c3)c(-c3ccncc3)[nH]2)cc1 | inactive |
| CC(Cc1ccc(CNC(=O)c2ccc(CC(C)NCCc3cccc(Cl)c3)cc2)cc1)NCCc1cccc(Cl)c1 (stereo not drawn) | inactive |
| COc1ccc(NC(=O)Nc2ccc(Nc3nc(C)cc(N(C)C)n3)cc2)cc1 | inactive |
| CC(C)(C)c1ccc(CN2CCC(CNC(=O)c3cc(-c4cccc(F)c4)cs3)C2)cc1 (stereo not drawn) | inactive |
| NC1CCN(Cc2cccc(-c3csc(-c4nc5ccccc5[nH]4)c3)c2)C1 (stereo not drawn) | inactive |
| CCOc1cc(C)ccc1N1CCN(CCCCNC(=O)c2ccc(NC(=O)c3ccc(Cl)cc3)cc2)CC1 | inactive |
| CN(C)CCCNCc1cn(S(=O)(=O)c2ccccc2Cl)c2ccccc12 | inactive |

----------
Parameter inhibition: see the listing below.
molecular target: L-lactate dehydrogenase (Plasmodium falciparum (isolate CDC / Honduras)); assay: PfLDH activity inhibition – cell lysate, 3D7 strain, counter-screen for P. falciparum growth inhibition project (AID 2304);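 note: 0% = vehicle and 100% = reference inhibitor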; details: P. falciparum 3D7 crude extract, LDH APAD/NBT absorbance; at 2 µM; hits give high values
Residues, ends and D or L forms follow the SMILES beside them. *: point of attachment. Boc = CC(C)(C)OC(=O)*

| compound | value.units | inhibition |
| --- | --- | --- |
| Cc1ccc2nc(C)n(C3CCN(C(=O)C4(c5ccccc5)CC4)CC3)c2c1 | % | 7 |
| CC(CN(C)C)C(=O)Nc1ccc(-c2ccc(-c3nc4ccc(F)cc4[nH]3)cc2)cc1 (stereo not drawn) | % | -2 |
| COc1cc(N)cc2sc(N)nc12 | % | -2 |
| COc1ccc(NC(=O)[C@H](CC(C)C)Nc2cc(C)nc(NCCOc3ccccc3)n2)cc1 | % | 4 |
| CC(Oc1c(C2CCN(CCCCNC(=O)c3ccc(-c4ccc(C#N)cc4)cc3)CC2)ccc2c1CCCC2)C(N)=O (stereo not drawn) | % | -3 |
| O=C(Nc1ccc(Cl)cc1)Nc1ccc(Cn2ncc(N3CCCNCC3)c(Cl)c2=O)cc1 | % | 1 |
| COc1cc(Cc2cnc(N)nc2N)c2c(c1OC)OC(C)(C)C=C2 | % | -3 |
| COc1ccc2nccc([C@@H](O)CN3CCC(NC(=O)C(c4cc5ccccc5o4)N4CCN(c5ccc(F)cc5)CC4)CC3)c2c1 (stereo partly drawn) | % | -1 |
| O=C(/C=C/c1ccc(Cl)cc1)NCCCCCN1CCN(C(=O)Nc2ccc(Cl)c(C(F)(F)F)c2)CC1 | % | 8 |
| COC(=O)CC[C@H](NC(=O)[C@H](C)NC(=O)OC(C)(C)C)C(=O)OC (Boc-Ala-Glu(OMe)-OMe) | % | -2 |
| Cc1cc(C(F)(F)F)n2nc(C(=O)N(C)Cc3cncn3Cc3ccc(F)cc3)cc2n1 | % | 0 |
| Cc1cccc2[nH]c(-c3cccc(-c4cccc(CNCc5ccc(S(C)(=O)=O)cc5)c4)c3)nc12 | % | 0 |
| NC1CCCN(Cc2ccc(-c3cccc(-c4nc5ccc(F)cc5[nH]4)c3)cc2)C1 (stereo not drawn) | % | 1 |
| COc1ccc2c(=O)c(I)c(C)[nH]c2c1 | % | 4 |
| COc1ccc(CNCc2cccc(-c3ccc(-c4nc5ccc(C(F)(F)F)cc5[nH]4)cc3)c2)cc1 | % | 0 |
| O=C(Nc1ccc(Cl)cc1)c1cccc(S(=O)(=O)NC2CCN(CC3CCCCC3)CC2)c1 | % | 0 |
| CCCN(CCCCNC(=O)c1ccc(-c2cccnc2)cc1)C1CCc2c(O)cccc2C1 (stereo not drawn) | % | 0 |
| COc1cc(OC)c(NC(=O)C2c3ccccc3C(=O)N(CC(C)C)C2c2cccs2)cc1Cl (stereo not drawn) | % | -1 |
| COc1cccc(C=NNc2cc(C)nc3ccccc23)c1 | % | -8 |
| COc1ccc2nccc([C@@H](O)CN3CCC(NCCOc4cccc(C(F)(F)F)c4)CC3)c2c1 | % | 3 |
| CC(C)c1ccc(NC(=O)N2CCc3ccc(OCCN(C(C)C)C(C)C)cc32)c(Br)c1 | % | 2 |
| Cc1ccc(/C=C/C(=O)NCCCCCN2CCCN(C(=O)Nc3ccc(Cl)c(Cl)c3)CC2)cc1 | % | 2 |
| CCN1CCN(Cc2ccc3nc(-c4cc(C)n(Cc5cc(Cl)ccc5OCc5ccccc5)n4)[nH]c3c2)CC1 | % | 2 |
| CC(C)CN1CCN(c2nc(C#N)c3c(c2C(=S)NC2CCCCC2)CC(C)(C)OC3)CC1 | % | -2 |
| Cc1cccc2[nH]c(-c3ccc(-c4ccc(CNCc5cccc(N)c5)cc4)s3)nc12 | % | -2 |
| O=C(Cn1c(CCc2cccc(F)c2F)nc(=O)c2ccccc21)N(CCN1CCCCC1)Cc1ccc(-c2ccc(C(F)(F)F)cc2)cc1 | % | 4 |
| c1csc(-c2nc(N3CCCCC3)ncc2-c2ccsc2)n1 | % | -3 |
| COc1ccc(CCN(C)CCOc2ccc(NC(=O)COc3ccc4sc5ccccc5c(=O)c4c3)cc2)cc1OC | % | -1 |
| Fc1ccc(-c2cncc(-c3ccc(F)cc3)n2)cc1 | % | 2 |
| CC(=O)N(C)c1cccc(C(=O)Nc2ccc(-c3cccc(-c4nc5ccc(C(F)(F)F)cc5[nH]4)c3)cc2)c1 | % | -2 |
| Cc1noc(C)c1CN1Cc2ccccc2OC2(CCN(Cc3c[nH]c4cnccc34)CC2)C1 | % | -2 |
| CC(=O)N1CCC(C(=O)Nc2ccc(-c3cccc(-c4nc5c(C)cccc5[nH]4)c3)cc2)CC1 | % | -1 |
| CCCCn1c(Sc2ccc(C#N)c([N+](=O)[O-])c2)nnc1-c1cccc(Cl)c1 | % | 2 |
| O=C(Nc1ccc(OC2CCN(Cc3ccsc3)C2)c(Cl)c1)c1ccco1 (stereo not drawn) | % | -5 |
| N=c1n(Cc2ccc(Cl)cc2)c2ccccc2n1CC(O)c1ccc(Cl)c(Cl)c1 (stereo not drawn) | % | 4 |
| Nc1cccc(CNCc2ccc(-c3cccc(-c4nc5ccc(F)cc5[nH]4)c3)cc2)c1 | % | -3 |
| CN1CCN(c2ccc(-c3cccc(NC(=O)c4cccc([N+](=O)[O-])c4)c3)nn2)CC1 | % | -1 |
| NC(N)=Nc1cccc(NC(=O)Nc2cccc(N=C(N)N)c2)c1 | % | 7 |

// provenance: PubChem BioAssay
